Molecular target: 11β-HSD1 (Homo sapiens, UniProt P28845)
Sequence (P28845 whole entry): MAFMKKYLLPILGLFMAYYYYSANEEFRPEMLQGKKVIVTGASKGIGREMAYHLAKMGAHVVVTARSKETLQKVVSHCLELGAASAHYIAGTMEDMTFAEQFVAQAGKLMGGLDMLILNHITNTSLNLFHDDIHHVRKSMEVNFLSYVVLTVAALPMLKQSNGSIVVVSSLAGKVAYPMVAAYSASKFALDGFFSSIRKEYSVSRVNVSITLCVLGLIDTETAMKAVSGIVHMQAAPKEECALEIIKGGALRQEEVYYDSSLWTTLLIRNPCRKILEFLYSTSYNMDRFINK
Assay: biochemical
Settings: read-out: Average % inhibition at 100 nM
// reported inhibition at 0.1 µM for each item listed
measuredEndpoint: inhibition at 0.1 µM (%)

> print(dat)
                                    compound                               testsystem      measuredendpoint  reported
 1  COCc1ccc([C@H](C)N2CC[C@](CCCO)(c3ccccc3)OC2=O)cc1 [EXAMPLE 199]  11β-HSD1 (Homo sapiens, UniProt P28845)  inhibition at 0.1 µM      90.3
 2  C[C@@H](c1ccc(CC(C)(C)O)cc1)N1CC[C@](CCCO)(c2ccccc2)OC1=O [EXAMPLE 312]  11β-HSD1 (Homo sapiens, UniProt P28845)  inhibition at 0.1 µM      85.7
 3  O=C1O[C@@](CCCO)(c2ccc(F)cc2)CCN1[C@H]1CCCN(Cc2ccccc2)C1 [EXAMPLE 341]  11β-HSD1 (Homo sapiens, UniProt P28845)  inhibition at 0.1 µM        82
 4  CC[C@@H](c1ccc(Br)cc1)N1CC[C@](CCCO)(c2ccccc2)OC1=O [EXAMPLE 220]  11β-HSD1 (Homo sapiens, UniProt P28845)  inhibition at 0.1 µM      85.5
 5  C=CCCC1(c2ccc(F)cc2)CCN([C@@H](C)c2ccc(OC(F)F)cc2)C(=O)O1 (single isomer, unassigned) [EXAMPLE 323 Isomer 1]  11β-HSD1 (Homo sapiens, UniProt P28845)  inhibition at 0.1 µM      85.9
 6  O=C1OC(CCO)(c2ccccc2F)CCN1c1ccc(Cl)c(-c2ccc(F)cc2)n1 (stereo not shown) [EXAMPLE 133]  11β-HSD1 (Homo sapiens, UniProt P28845)  inhibition at 0.1 µM      85.8
 7  O=C1OC(CCCO)(c2ccc(F)cc2)CCN1Cc1ccc(Cl)cc1Cl (stereo not shown) [EXAMPLE 343]  11β-HSD1 (Homo sapiens, UniProt P28845)  inhibition at 0.1 µM      82.3
 8  CC(O)C[C@]1(c2ccc(F)cc2)CCN([C@@H](C)c2cccc(Br)c2)C(=O)O1 (stereo partly shown) [EXAMPLE 355]  11β-HSD1 (Homo sapiens, UniProt P28845)  inhibition at 0.1 µM      95.5
 9  C[C@@H](c1ccc(-c2ccc(F)cc2F)cc1)N1CC[C@](CCS(C)(=O)=O)(c2ccc(F)cc2)OC1=O [EXAMPLE 229]  11β-HSD1 (Homo sapiens, UniProt P28845)  inhibition at 0.1 µM      81.6
10  O=C(OCc1ccccc1)N1CCC[C@H](N2CC[C@](CCCO)(c3ccc(F)cc3)OC2=O)C1 [EXAMPLE 340]  11β-HSD1 (Homo sapiens, UniProt P28845)  inhibition at 0.1 µM      75.9

---

Molecular target: 11β-HSD1 (Homo sapiens)
Conditions: Biological Test Example 1; 100 nM compound; 0.1 µM
// reported Average % inhibition at 100 nM for each item listed

compound	Average % inhibition at 100 nM / %
C[C@@H](c1ccc(-c2ccc(F)cc2)cc1)N1CC[C@](CC(O)CN(C)S(C)(=O)=O)(c2ccc(F)cc2)OC1=O (single isomer, unassigned) [EXAMPLE 278 Isomer 1]	86.6
C[C@@H](c1ccc(-c2ccc(F)cc2F)cc1)N1CC[C@](CC(O)CN(C)C)(c2ccc(F)cc2)OC1=O (single isomer, unassigned) [EXAMPLE 273 Isomer 1]	53.6
C[C@@H](c1ccccc1)N1CCC(CO)(c2ccc(F)cc2)OC1=O (single isomer, unassigned) [EXAMPLE 114 Isomer 2]	66.6
CC(C)(C)OC(=O)N1CCC(N2CCC(CCCO)(c3ccccc3)OC2=O)C1 (single isomer, unassigned) [EXAMPLE 208 Isomer 3]	64.6
C[C@@H](c1ccc(-c2ccc(F)cc2F)cc1)N1CC[C@](CC(O)CN(C)C)(c2ccc(F)cc2)OC1=O (single isomer, unassigned) [EXAMPLE 273 Isomer 2]	17.9
CC(C)C1(CC(O)CO)CCN([C@@H](C)c2ccc(-c3ccc(F)cc3F)cc2)C(=O)O1 (single isomer, unassigned) [EXAMPLE 223 Isomer 2]	97.1
